Source listed as ChEMBL document CHEMBL1201862.

- Tested on: UACC-62
- experiment: NCI tumour cell line growth inhibition, 48 h
The source made the active and inactive calls. No stated cut-off is given here; in the data, active = GI50 up to about 1.1 µM and inactive = higher.
Respond using exactly one of the listed classes: active, inactive

>>> classassignment("C=C1C[C@@H](O)[C@@H](Br)C(C)(C)[C@]12CCC(C)(Cl)C(Br)C2 (stereo partly specified)")
"inactive"

// return assay outcome for CN1C(=O)C(CC(=O)O)NC1=S (stereo unspecified)
inactive

// return assay outcome for Nc1nc(Cl)c(N)c(NCC2(CO)CC(OCc3ccccc3)C2)n1 (stereo unspecified)
inactive

// return assay outcome for CC(C)(C)CN1[C@@H]2CCCC[C@H]2N(CC(C)(C)C)P1(=O)C(O)/C=C/c1ccccc1 (stereo partly specified)
inactive

// return assay outcome for c1cncc(CNCCN2CCNCC2)c1
inactive

// return assay outcome for COC1CCC(O)C(CO)O1 (stereo unspecified)
inactive

###

Reported GI50 values for a set of compounds
- System: SK-OV-3
- experiment: NCI tumour cell line growth inhibition, 48 h
Activity calls are given as the source filed them. No stated cut-off is given here; in the data, active = GI50 up to about 1.1 µM and inactive = higher.

Report GI50 for CC1(O)C(=O)OC2CC([C@]3(O)CCC4[C@@H]5C[C@H]6O[C@]67[C@@H](O)C=CC(=O)[C@]7(C)C5CC[C@@]43C)C1(C)C2 (stereo partly drawn) please.
47.9 µM (inactive)

Report GI50 for COC1(OC)N=C(N)C2(C#N)/C(=N/N(C)C)CC(C)C12C#N (stereo not drawn) please.
> 100 µM (inactive)

Report GI50 for c1cc2nnc1SCCSCCCSCCS2 please.
> 100 µM (inactive)

###

- System: PC-3
- experiment: NCI tumour cell line growth inhibition, 48 h
Activity calls are given as the source filed them. No stated cut-off is given here; in the data, active = GI50 up to about 1.1 µM and inactive = higher.
Respond using exactly one of the listed classes: active, inactive

Some solved cases for reference:
>>> classassignment("CC1OC(OC2C(O)COC(OC3C(C)OC(OC4C(OC(=O)[C@]56CCC(C)(C)C[C@@H]5C5=CCC7[C@@]8(C)C[C@H](O)[C@H](OC9OC(CO)C(O)C(OC%10OC(CO)C(O)C(O)C%10O)C9O)[C@@](C)(CO)[C@@H]8CC[C@@]7(C)[C@]5(C)CC6)OCC(O)C4O)C(O)C3O)C2O)C(O)C(O)C1O (stereo partly specified)")
"inactive"
>>> classassignment("Nc1nc(Cl)c(N)c(NCC2(CO)CC(OCc3ccccc3)C2)n1 (stereo unspecified)")
"inactive"
>>> classassignment("CCOC(=O)C(NC(=O)c1cccc(Cl)c1)(N1CCN(c2cc3c(cc2F)c(=O)c(C(=O)O)cn3CC)CC1)C(F)(F)F (stereo unspecified)")
"inactive"
>>> classassignment("C[C@@H](c1ccccc1)C(CC#N)[C@H]1CCC[C@]1(O)C#Cc1ccc2c(c1)OCO2 (stereo partly specified)")
"inactive"
>>> classassignment("COC(=O)c1c2c(cc3c1CC1(Cc4cc5c(c(C=O)c4C1)CCCC5)C3)CCCC2 (stereo unspecified)")
"inactive"

// return assay outcome for CC(C)(C)c1cc(O)ccc1O
inactive

// return assay outcome for N#Cc1nc(-c2ccccn2)c(-c2ccccn2)nc1C#N
inactive

// return assay outcome for Oc1cn(-c2ccc(Cl)cc2)nc1-c1n[nH]c(=S)n1-c1ccccc1
inactive

// return assay outcome for C/C=C/C=C/c1nc(C#N)c(N)o1
inactive

// return assay outcome for COc1cccc2c1C(=O)c1c(O)c3c(c(O)c1C2=O)CC(O)(C(C)=O)CC3OC1OC(COC(C)=O)C(OC(C)=O)C(OC(C)=O)C1OC(C)=O (stereo unspecified)
inactive

// return assay outcome for O=C(CCC1CCCCC1)NCc1ccc(C(=O)O)cc1
inactive
